# system tested: alpha2C receptor (Homo sapiens, UniProt P18825)
# Construct: expressed in transfected cells; host or cells: NIH-3T3 cells
# Sequence (P18825 whole entry): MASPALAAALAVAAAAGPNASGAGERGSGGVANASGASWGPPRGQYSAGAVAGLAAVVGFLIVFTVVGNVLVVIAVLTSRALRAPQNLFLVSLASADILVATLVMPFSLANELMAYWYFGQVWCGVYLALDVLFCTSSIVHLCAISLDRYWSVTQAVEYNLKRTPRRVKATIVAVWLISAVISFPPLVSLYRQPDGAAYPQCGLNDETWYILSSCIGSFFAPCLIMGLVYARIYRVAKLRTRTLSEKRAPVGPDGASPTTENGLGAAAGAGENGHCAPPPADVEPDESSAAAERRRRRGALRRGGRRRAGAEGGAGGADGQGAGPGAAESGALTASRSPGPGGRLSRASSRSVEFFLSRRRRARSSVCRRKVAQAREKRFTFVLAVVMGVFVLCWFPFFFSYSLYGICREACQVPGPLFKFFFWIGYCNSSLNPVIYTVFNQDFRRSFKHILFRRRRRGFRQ
# run description: Receptor Selection and Amplification Technology (RSAT) assay, alpha2C
# Type: cell-based
# condition parameters: RSAT, transfected NIH-3T3 cells with Gq/i5; not active = not active at concentrations less than 10 micromolar; read-out: Alpha 2C EC50
observable: pEC50
Numbers only, as −log10 of the molar value.

The examples below pair each entry with its known result.
>>> df
                                   compound                             system_tested  measurement
0             Cc1cccc(CN/C(=N/C#N)NCCF)c1Cl  alpha2C receptor (Homo sapiens, UniProt P18825)         6.33
1             N#C/N=C(/NCCF)NCc1cccc2c1OCC2  alpha2C receptor (Homo sapiens, UniProt P18825)         6.45
2              N#C/N=C(/NCCF)NCc1cccc(Br)c1  alpha2C receptor (Homo sapiens, UniProt P18825)         5.58
3        Cc1cccc2c1CC[C@@H]2N/C(=N\C#N)NCCF  alpha2C receptor (Homo sapiens, UniProt P18825)         5.82
4  N#C/N=C(\NCCF)NC1CCc2ccc(Cl)cc21 (stereo not shown)  alpha2C receptor (Homo sapiens, UniProt P18825)         6.02

Parameter requested: pEC50. Apply to each item below.
1. N#C/N=C(/NCCF)NC1CCCc2c(F)cccc21 (stereo not shown)
2. N#C/N=C(\NCCF)NC1CCc2ccc(F)cc21 (stereo not shown)

[5.71, 6.42]

Parameter requested: pEC50. Apply to each item below.
1. Cc1cccc2c1CCCC2N/C(=N\C#N)NCCF (stereo not shown)
2. N#C/N=C(/NCCF)NC1CCc2ccccc21 (stereo not shown)
3. Cc1cccc2c1CCC2N/C(=N\C#N)NCCF (stereo not shown)

5.83
5.75
6.04

Recorded values, source patent US7884244B2.
